Biological target: acyl-CoA:cholesterol acyltransferase (ACAT) (Oryctolagus cuniculus)
Construct: The intestinal mucosa of a white rabbit was homogenized and microsomal fraction was obtained; from tissue; host or cells: white rabbit intestinal mucosa, microsomal fraction
Assay: Inhibitory activity on acyl-CoA:cholesterol acyltransferase (ACAT)
Format: biochemical, white rabbit
Settings: 0.01 μM; rabbit intestinal mucosa microsomes; read-out: Inhibition rate
Task for the reader: assign each of the following molecules its reported inhibition at 0.01 µM.
Provide the measurement as a number trailed by its unit.

Provide inhibition at 0.01 µM values for the following items, in order.
1. CCCCCCCc1ccc(NC(=O)Nc2c(C(C)C)cccc2C(C)C)c(-c2ccccc2Cl)n1
2. Cc1nc(-c2ccccc2)nc(-c2ccccc2Cl)c1NC(=O)Nc1c(C(C)C)cccc1C(C)C
3. CC(C)c1cccc(C(C)C)c1NC(=O)Nc1cnc(N2CCN(C)CC2)nc1-c1ccccc1Cl
4. CC(C)c1cccc(C(C)C)c1NC(=O)Nc1ccc(-c2ccccc2)nc1-c1ccccc1Cl

OUTPUT:
1. 29.8%
2. 58.5%
3. 40.1%
4. 53.1%

Provide inhibition at 0.01 µM values for the following items, in order.
1. CC(C)c1cccc(C(C)C)c1NC(=O)Nc1cnc(-c2cc(Cl)cc(Cl)c2)nc1-c1ccccc1Cl
2. CCc1cccc(CC)c1NC(=O)Nc1cnc(N2CCCCC2)nc1-c1ccccc1Cl
3. Cc1cccc(N(C)C)c1NC(=O)Nc1cnc(-c2ccccc2)nc1-c1ccccc1Cl

OUTPUT:
1. 46.8%
2. 75.7%
3. 35.9%

====

Biological target: acyl-CoA:cholesterol acyltransferase (ACAT) (Oryctolagus cuniculus, UniProt G1SFD9)
Construct: The intestinal mucosa of a white rabbit was homogenized and microsomal fraction was obtained; from tissue; host or cells: white rabbit intestinal mucosa, microsomal fraction
Test: Inhibitory activity on acyl-CoA:cholesterol acyltransferase (ACAT)
Format: biochemical, white rabbit
Details: 1 μM; rabbit intestinal mucosa microsomes; read-out: Inhibition rate
Experimental: Inhibitory activity on acyl-CoA:cholesterol acyltransferase (ACAT) The enzyme used in the test was prepared according to the method of Heider et al. [J. Lipid, Res. 24, 1127 (1983)]. […] ACAT activity was determined by a modification of the method of Helgerud et al. [J. Lipid Res. 22, 271 (1981)] by measuring radioactivity incorporated into cholesterol esters from [1-^14 C]oleyl-CoA, as an indication. […]
Rule: true for inhibition at 1 µM not less than 90%, false for anything less.

[[record]]
mol = "CCc1cccc(CC)c1NC(=O)Nc1cnc(-c2ccccc2)nc1-c1ccccc1Cl"
categorylabel = "true"

[[record]]
mol = "O=C(Nc1cnc(-c2ccccc2)nc1-c1ccccc1Cl)Nc1c(F)cc(F)cc1F"
categorylabel = "false"

[[record]]
mol = "Cc1cccc(C)c1NC(=O)Nc1cnc(-c2ccccc2)nc1-c1ccccc1Cl"
categorylabel = "true"


INPUT: Please indicate if the recorded inhibition at 1 µM for `CC(C)c1cccc(C(C)C)c1NC(=O)Nc1cnc(-c2ccccc2)nc1-c1ccccc1Cl` meets or exceeds 90%.
OUTPUT: true

INPUT: Please indicate if the recorded inhibition at 1 µM for `Cc1cccc(C(C)C)c1NC(=O)Nc1c(C)nc(-c2ccccc2)nc1-c1ccccc1Cl` meets or exceeds 90%.
OUTPUT: true

INPUT: Please indicate if the recorded inhibition at 1 µM for `Cc1nc(-c2ccccc2)nc(-c2ccccc2Cl)c1NC(=O)Nc1ccc(N(C)C)cc1` meets or exceeds 90%.
OUTPUT: false

INPUT: Please indicate if the recorded inhibition at 1 µM for `Cc1nc(-c2ccccc2)nc(-c2ccccc2Cl)c1NC(=O)Nc1c(C(C)C)cccc1C(C)C` meets or exceeds 90%.
OUTPUT: true

INPUT: Please indicate if the recorded inhibition at 1 µM for `Cc1cc(C)c(NC(=O)Nc2cnc(-c3ccccc3)nc2-c2ccccc2Cl)c(C)c1` meets or exceeds 90%.
OUTPUT: false

====

Target: acyl-CoA:cholesterol acyltransferase (ACAT) (Oryctolagus cuniculus, UniProt G1SFD9)
Construct: The intestinal mucosa of a white rabbit was homogenized and microsomal fraction was obtained; from tissue; host or cells: white rabbit intestinal mucosa, microsomal fraction
Experiment: Inhibitory activity on acyl-CoA:cholesterol acyltransferase (ACAT)
Type: biochemical, white rabbit
Conditions: 0.01 μM; rabbit intestinal mucosa microsomes; read-out: Inhibition rate
Rule: criterion met for inhibition at 0.01 µM not less than 60%, criterion not met for anything less.

[[record]]
mol = "CC(C)c1cccc(C(C)C)c1NC(=O)Nc1cnc(C(C)(C)C)nc1-c1ccccc1Cl"
categorylabel = "criterion not met"

[[record]]
mol = "Cc1cccc(C(C)C)c1NC(=O)Nc1c(C)nc(-c2ccccc2)nc1-c1ccccc1Cl"
categorylabel = "criterion not met"

[[record]]
mol = "CCc1cccc(CC)c1NC(=O)Nc1cnc(N2CCCC2)nc1-c1ccccc1Cl"
categorylabel = "criterion met"

[[record]]
mol = "CCOc1ncc(NC(=O)Nc2c(C(C)C)cccc2C(C)C)c(-c2ccccc2Cl)n1"
categorylabel = "criterion met"

[[record]]
mol = "CC(C)c1cccc(C(C)C)c1NC(=O)Nc1cnc(-c2ccccc2)nc1-c1ccccc1"
categorylabel = "criterion met"


INPUT: Please indicate if the recorded inhibition at 0.01 µM for `CC(C)c1cccc(C(C)C)c1NC(=O)Nc1ccc(C2CCCCC2)nc1-c1ccccc1Cl` meets or exceeds 60%.
OUTPUT: criterion not met

====

Target: acyl-CoA:cholesterol acyltransferase (ACAT) (Oryctolagus cuniculus)
Construct: The intestinal mucosa of a white rabbit was homogenized and microsomal fraction was obtained; from tissue; host or cells: white rabbit intestinal mucosa, microsomal fraction
Sequence (G1SFD9 1-524): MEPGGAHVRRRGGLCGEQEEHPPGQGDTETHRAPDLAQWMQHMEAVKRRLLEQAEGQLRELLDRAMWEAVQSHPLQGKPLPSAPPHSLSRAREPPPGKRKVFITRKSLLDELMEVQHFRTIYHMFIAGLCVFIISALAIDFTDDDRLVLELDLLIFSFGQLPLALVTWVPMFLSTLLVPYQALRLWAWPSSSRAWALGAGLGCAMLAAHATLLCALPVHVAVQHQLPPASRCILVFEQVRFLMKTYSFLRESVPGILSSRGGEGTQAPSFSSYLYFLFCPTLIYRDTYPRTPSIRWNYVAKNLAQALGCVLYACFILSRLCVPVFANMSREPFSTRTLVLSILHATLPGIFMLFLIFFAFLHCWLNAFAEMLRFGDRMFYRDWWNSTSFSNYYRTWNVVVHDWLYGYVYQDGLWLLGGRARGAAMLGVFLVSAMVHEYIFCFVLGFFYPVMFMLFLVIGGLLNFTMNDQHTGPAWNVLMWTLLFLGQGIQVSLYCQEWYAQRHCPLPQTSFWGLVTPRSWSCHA
Assay: Inhibitory activity on acyl-CoA:cholesterol acyltransferase (ACAT)
Assay type: biochemical, white rabbit
Details: 0.01 μM; rabbit intestinal mucosa microsomes; read-out: Inhibition rate
Protocol: Inhibitory activity on acyl-CoA:cholesterol acyltransferase (ACAT) The enzyme used in the test was prepared according to the method of Heider et al. [J. Lipid, Res. 24, 1127 (1983)]. […] ACAT activity was determined by a modification of the method of Helgerud et al. [J. Lipid Res. 22, 271 (1981)] by measuring radioactivity incorporated into cholesterol esters from [1-^14 C]oleyl-CoA, as an indication. […]
Rule: Yes for inhibition at 0.01 µM not less than 60%, No for anything less.

[[record]]
mol = "Cc1ncc(NC(=O)Nc2c(C(C)C)cccc2C(C)C)c(-c2ccccc2Cl)n1"
categorylabel = "No"

[[record]]
mol = "Cc1ccccc1-c1nc(-c2ccccc2)ncc1NC(=O)Nc1c(C(C)C)cccc1C(C)C"
categorylabel = "Yes"

[[record]]
mol = "Cc1ccc(NC(=O)Nc2c(C(C)C)cccc2C(C)C)c(-c2ccccc2Cl)n1"
categorylabel = "No"

[[record]]
mol = "CCc1cccc(CC)c1NC(=O)Nc1cnc(-c2ccccc2)nc1-c1ccccc1C(F)(F)F"
categorylabel = "Yes"

[[record]]
mol = "COc1ccccc1-c1nc(-c2ccccc2)ncc1NC(=O)Nc1c(C(C)C)cccc1C(C)C"
categorylabel = "No"

[[record]]
mol = "CCc1cccc(CC)c1NC(=O)Nc1cnc(-c2ccccc2)nc1-c1ccccc1SC"
categorylabel = "No"

[[record]]
mol = "CC(C)c1cccc(C(C)C)c1NC(=O)Nc1cnc(-c2ccccc2)nc1-c1ccc(Cl)cc1"
categorylabel = "No"

[[record]]
mol = "CC(C)c1cccc(C(C)C)c1NC(=O)Nc1cnc(-c2ccccc2)nc1-c1ccccc1F"
categorylabel = "Yes"


INPUT: Please indicate if the recorded inhibition at 0.01 µM for `CC(C)c1cccc(C(C)C)c1NC(=O)Nc1cnc(N2CCCCC2)nc1-c1ccccc1Cl` meets or exceeds 60%.
OUTPUT: Yes

INPUT: Please indicate if the recorded inhibition at 0.01 µM for `CC(C)c1cccc(C(C)C)c1NC(=O)Nc1cnc(-c2ccccc2)nc1-c1ccc(Cl)cc1Cl` meets or exceeds 60%.
OUTPUT: No

INPUT: Please indicate if the recorded inhibition at 0.01 µM for `CC(C)c1cccc(C(C)C)c1NC(=O)Nc1cnc(-c2ccccc2)nc1-c1ccccc1Cl` meets or exceeds 60%.
OUTPUT: Yes

INPUT: Please indicate if the recorded inhibition at 0.01 µM for `CCc1cccc(CC)c1NC(=O)Nc1cnc(N2CCOCC2)nc1-c1ccccc1Cl` meets or exceeds 60%.
OUTPUT: Yes

INPUT: Please indicate if the recorded inhibition at 0.01 µM for `Cc1cccc(C)c1NC(=O)Nc1cnc(-c2ccccc2)nc1-c1ccccc1Cl` meets or exceeds 60%.
OUTPUT: No
